assay-system: T1, human CD47 protein, His Tag (ACRObiosystems, Cat. No. CD7-H5227) (human, UniProt Q08722 19-139)
T1 construct: bought reagent; also called CD47-His; hCD47-His Tag; not shown: His tag
T1 sequence (Q08722 19-139 limits assumed): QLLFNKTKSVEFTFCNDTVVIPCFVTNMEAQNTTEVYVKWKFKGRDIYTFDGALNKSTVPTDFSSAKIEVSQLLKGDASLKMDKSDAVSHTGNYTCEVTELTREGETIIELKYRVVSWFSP
method-summary: ELISA, CD47-His coated, competition with Human-SIRPα-mFc
experimental-endpoint: IC50
// return the numeric value with its unit appended

Which measured IC50 value corresponds to hz3F10-1.1 (antibody, human IgG4 S228P, kappa, V domains shown, humanized 3F10, full-length heavy and light chains) VH: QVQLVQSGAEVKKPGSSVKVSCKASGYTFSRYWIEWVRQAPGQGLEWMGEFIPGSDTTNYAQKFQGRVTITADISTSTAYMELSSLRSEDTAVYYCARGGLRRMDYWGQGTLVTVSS VL: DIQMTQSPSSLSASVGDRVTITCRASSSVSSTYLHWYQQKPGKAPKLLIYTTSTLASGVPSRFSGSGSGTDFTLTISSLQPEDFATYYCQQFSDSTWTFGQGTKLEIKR ? 1.53 µg/mL

Which measured IC50 value corresponds to hz3F10-3.2 (antibody, human IgG4 S228P, kappa, V domains shown, humanized 3F10, full-length heavy and light chains) VH: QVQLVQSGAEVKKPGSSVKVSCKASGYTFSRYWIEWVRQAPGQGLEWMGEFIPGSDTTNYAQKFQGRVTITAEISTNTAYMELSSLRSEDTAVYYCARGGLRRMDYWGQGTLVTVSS VL: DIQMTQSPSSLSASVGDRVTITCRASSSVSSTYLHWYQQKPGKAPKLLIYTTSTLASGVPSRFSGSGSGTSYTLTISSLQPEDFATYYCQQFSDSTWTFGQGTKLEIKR ? 1.74 µg/mL

Which measured IC50 value corresponds to hz3F10-5.2 (antibody, human IgG4 S228P, kappa, V domains shown, humanized 3F10, full-length heavy and light chains) VH: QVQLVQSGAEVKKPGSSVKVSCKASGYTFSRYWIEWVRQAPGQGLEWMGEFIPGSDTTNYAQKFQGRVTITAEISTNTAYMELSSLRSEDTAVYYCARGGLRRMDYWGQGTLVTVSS VL: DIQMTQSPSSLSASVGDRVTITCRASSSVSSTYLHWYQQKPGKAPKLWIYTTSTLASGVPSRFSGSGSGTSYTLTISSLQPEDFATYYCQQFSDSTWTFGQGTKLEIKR ? 1.82 µg/mL

Which measured IC50 value corresponds to hz3F10-2.1 (antibody, human IgG4 S228P, kappa, V domains shown, humanized 3F10, full-length heavy and light chains) VH: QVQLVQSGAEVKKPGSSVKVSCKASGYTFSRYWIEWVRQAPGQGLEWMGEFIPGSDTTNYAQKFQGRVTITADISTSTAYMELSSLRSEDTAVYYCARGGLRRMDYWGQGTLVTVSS VL: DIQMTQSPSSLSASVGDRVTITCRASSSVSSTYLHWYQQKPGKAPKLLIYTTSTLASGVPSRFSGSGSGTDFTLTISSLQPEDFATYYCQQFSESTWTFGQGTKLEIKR ? 1.61 µg/mL

Which measured IC50 value corresponds to hz3F10-3.1 (antibody, human IgG4 S228P, kappa, V domains shown, humanized 3F10, full-length heavy and light chains) VH: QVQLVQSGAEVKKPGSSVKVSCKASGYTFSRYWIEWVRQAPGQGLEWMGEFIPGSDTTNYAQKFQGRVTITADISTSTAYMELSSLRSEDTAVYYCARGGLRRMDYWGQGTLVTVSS VL: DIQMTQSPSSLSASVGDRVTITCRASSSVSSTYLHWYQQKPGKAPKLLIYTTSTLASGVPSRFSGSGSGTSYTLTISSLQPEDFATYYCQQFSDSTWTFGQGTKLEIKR ? 1.68 µg/mL
